# credit: patent US20200317779A1

target: T1, CD3 on monkey T cells (monkey splenocytes) (monkey); assay: flow cytometry on monkey splenocytes, 1 µg antibody per 10^6 cells in 100 µl, PE anti-human IgG detection
T1 construct: whole, on cells; The target is printed as 'monkey T cells'
readout-kind: Mean : Comp-PE-A
# respond with the number and nothing more

Please review the entries below; each comes with its answer.
H16 (antibody, human IgG1, lambda, L234A L235A, V domains shown, humanized SP34 IgG1, lambda) VH: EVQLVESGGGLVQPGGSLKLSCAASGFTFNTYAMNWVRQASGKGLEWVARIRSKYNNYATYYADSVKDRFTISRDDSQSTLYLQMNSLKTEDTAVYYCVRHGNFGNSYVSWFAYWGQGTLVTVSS VL: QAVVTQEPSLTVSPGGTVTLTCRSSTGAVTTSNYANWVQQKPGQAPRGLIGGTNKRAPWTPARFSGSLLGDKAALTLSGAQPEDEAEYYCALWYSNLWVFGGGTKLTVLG ... 13400
Mouse human chimeric SP34 IgG1 antibody (antibody, V domains shown) VH: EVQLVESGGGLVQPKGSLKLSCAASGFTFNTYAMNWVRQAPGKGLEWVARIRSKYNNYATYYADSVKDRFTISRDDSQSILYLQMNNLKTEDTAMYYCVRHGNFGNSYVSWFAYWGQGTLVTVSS VL: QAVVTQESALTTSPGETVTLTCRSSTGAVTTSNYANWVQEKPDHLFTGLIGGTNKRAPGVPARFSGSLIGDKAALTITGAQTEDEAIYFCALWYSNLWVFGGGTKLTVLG ... 19800
H15 (antibody, human IgG1, lambda, L234A L235A, V domains shown, humanized SP34 IgG1, lambda) VH: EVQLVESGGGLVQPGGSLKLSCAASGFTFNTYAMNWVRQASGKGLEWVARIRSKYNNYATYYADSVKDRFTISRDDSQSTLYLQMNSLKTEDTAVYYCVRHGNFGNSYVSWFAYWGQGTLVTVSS VL: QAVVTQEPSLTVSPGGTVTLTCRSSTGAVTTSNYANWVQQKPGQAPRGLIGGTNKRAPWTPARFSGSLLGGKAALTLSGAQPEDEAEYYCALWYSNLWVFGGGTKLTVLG ... 16700

### Prompt Reported Mean : Comp-PE-A for E15 (antibody, human IgG1, lambda, L234A L235A, V domains shown, humanized SP34 IgG1, lambda) VH: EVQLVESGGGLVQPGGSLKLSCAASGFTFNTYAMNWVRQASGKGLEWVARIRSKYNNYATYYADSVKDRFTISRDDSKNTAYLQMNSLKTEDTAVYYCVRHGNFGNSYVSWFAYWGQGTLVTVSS VL: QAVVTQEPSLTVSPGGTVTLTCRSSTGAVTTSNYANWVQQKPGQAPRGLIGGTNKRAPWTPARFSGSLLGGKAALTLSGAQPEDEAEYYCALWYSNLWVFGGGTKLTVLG : what is it?
### Response 13500

### Prompt Query D07 (antibody, human IgG1, lambda, L234A L235A, V domains shown, humanized SP34 IgG1, lambda; also called D7) VH: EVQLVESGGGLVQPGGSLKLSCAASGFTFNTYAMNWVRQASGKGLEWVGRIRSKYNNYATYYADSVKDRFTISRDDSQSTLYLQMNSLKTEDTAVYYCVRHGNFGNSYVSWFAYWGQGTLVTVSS VL: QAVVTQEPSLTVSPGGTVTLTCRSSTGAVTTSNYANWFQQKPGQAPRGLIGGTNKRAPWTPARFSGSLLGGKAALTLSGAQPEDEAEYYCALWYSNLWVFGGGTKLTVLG next
### Response 6760

### Prompt Query D15 (antibody, human IgG1, lambda, L234A L235A, V domains shown, humanized SP34 IgG1, lambda) VH: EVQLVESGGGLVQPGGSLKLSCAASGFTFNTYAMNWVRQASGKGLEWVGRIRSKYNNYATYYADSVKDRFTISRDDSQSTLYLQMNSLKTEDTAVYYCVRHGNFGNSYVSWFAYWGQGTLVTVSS VL: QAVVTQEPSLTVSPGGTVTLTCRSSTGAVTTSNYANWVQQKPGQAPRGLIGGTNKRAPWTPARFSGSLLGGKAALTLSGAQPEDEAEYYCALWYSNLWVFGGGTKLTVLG next
### Response 18600

### Prompt Query A15 (antibody, human IgG1, lambda, L234A L235A, V domains shown, humanized SP34 IgG1, lambda) VH: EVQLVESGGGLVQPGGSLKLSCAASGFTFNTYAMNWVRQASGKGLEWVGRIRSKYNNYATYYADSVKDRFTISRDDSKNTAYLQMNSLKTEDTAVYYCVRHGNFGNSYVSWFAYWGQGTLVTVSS VL: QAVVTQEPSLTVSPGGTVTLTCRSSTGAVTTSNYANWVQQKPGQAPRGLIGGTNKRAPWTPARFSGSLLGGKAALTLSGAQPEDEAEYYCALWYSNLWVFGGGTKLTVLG next
### Response 15800

### Prompt Query A08 (antibody, human IgG1, lambda, L234A L235A, V domains shown, humanized SP34 IgG1, lambda; also called A8) VH: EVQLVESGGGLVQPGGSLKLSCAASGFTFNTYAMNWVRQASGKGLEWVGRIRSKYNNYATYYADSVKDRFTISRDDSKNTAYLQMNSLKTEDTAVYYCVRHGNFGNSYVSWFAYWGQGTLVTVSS VL: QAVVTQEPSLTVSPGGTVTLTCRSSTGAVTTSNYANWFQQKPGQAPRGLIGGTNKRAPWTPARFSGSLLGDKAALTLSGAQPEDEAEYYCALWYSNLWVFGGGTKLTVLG next
### Response 5530

### Prompt Query E16 (antibody, human IgG1, lambda, L234A L235A, V domains shown, humanized SP34 IgG1, lambda) VH: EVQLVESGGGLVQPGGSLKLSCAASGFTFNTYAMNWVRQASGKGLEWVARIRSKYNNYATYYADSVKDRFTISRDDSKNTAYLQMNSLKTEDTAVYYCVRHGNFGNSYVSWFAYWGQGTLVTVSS VL: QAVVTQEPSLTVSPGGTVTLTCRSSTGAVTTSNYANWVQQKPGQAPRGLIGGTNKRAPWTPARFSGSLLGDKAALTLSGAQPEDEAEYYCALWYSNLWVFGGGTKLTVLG next
### Response 13900

### Prompt Query A16 (antibody, human IgG1, lambda, L234A L235A, V domains shown, humanized SP34 IgG1, lambda) VH: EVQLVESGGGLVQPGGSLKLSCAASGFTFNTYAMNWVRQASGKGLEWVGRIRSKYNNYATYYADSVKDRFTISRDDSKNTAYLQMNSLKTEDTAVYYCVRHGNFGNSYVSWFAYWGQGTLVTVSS VL: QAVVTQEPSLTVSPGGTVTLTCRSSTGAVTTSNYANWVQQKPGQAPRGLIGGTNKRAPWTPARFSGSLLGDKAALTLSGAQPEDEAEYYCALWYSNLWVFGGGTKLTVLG next
### Response 17600
